- System: platelet aggregation
- procedure_summary: Platelet aggregation in vitro, whole blood impedance aggregometry (Multiplate)
- Assay type: cell-based, healthy donor
- measurement_parameters: PGE1 + ADP induced; 10^−4
test_readout: AUC (AU*min)
Just the number please, in AU*min, no unit attached.

[ask] What value of AUC has been reported for the following molecule? `CC(=O)Oc1ccccc1C(=O)O`
[reply] 961

[ask] What do we get for `O=C(O)c1cccnc1` ?
[reply] 862

---

- Tested on: platelet aggregation
- procedure_summary: Platelet aggregation in vitro, whole blood impedance aggregometry (Multiplate)
- Type: cell-based, healthy donor
- measurement_parameters: ADP induced; 10^−4
test_readout: Amax (AU)
Just the number please, in AU, no unit attached.

[ask] What value of Amax has been reported for the following compound? C[N+](C)(C)NCCC(=O)[O-].O.O [MD]
[reply] 153.2

[ask] What do we get for CC(=O)Oc1ccccc1C(=O)O [ASA, acetylsalicylic acid] ?
[reply] 151.7

Source: patent US8889902B2
